assay: Pharmacokinetic study in rhesus monkey; type: in vivo; settings: plasma, sc, 90 nmol kg^−1
Square brackets hold non-standard residues; d marks the D form. Ends that are not written are not given here. * marks the point of attachment. FITC = O=C1OC2(c3ccc(O)cc3Oc3cc(O)ccc32)c2ccc(NC(=S)*)cc21; Palmitoyl = CCCCCCCCCCCCCCCC(=O)*; Aib = CC(C)(N)C(=O)O; Ahx = NCCCCCC(=O)O

# substance, unitsLabel, half-life
rows = [
    ("{FITC-Ahx}-EYEEK(Palmitoyl)YEGGGGSGGGGSFNPRH[Aib]EGTFTSDVSSYLEGQAAKEFIAWLVKGRG (N-terminus assumed) [PES14]", "h", 95.1),
]

---

assay: Plasma stability test in human plasma with or without HSA; format: in vitro ADME; settings: human plasma with HSA
Square brackets hold non-standard residues; d marks the D form. Ends that are not written are not given here. * marks the point of attachment. FITC = O=C1OC2(c3ccc(O)cc3Oc3cc(O)ccc32)c2ccc(NC(=S)*)cc21; Stearoyl = CCCCCCCCCCCCCCCCCC(=O)*; Palmitoyl = CCCCCCCCCCCCCCCC(=O)*; Myristoyl = CCCCCCCCCCCCCC(=O)*; Aib = CC(C)(N)C(=O)O; Ahx = NCCCCCC(=O)O
// reported half-life at 1 mg L^−1 for each item listed
experimentalEndpoint: half-life at 1 mg L^−1 (h)

# substance, unitsLabel, resultComparator, valueMeasured
data = [
    ("{FITC-Ahx}-EYEEK(Stearoyl)YEGGGGSGGGGSFNPRH[Aib]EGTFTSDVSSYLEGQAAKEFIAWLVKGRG (N-terminus assumed) [PES15]", "h", "=", 56.5),
    ("{FITC-Ahx}-EYEEK(Palmitoyl)YEGGGGSGGGGSFNPRH[Aib]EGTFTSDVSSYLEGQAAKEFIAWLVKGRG (N-terminus assumed) [PES14]", "h", ">", 72),
    ("{FITC-Ahx}-EYEEK(Myristoyl)YEGGGGSGGGGSFNPRH[Aib]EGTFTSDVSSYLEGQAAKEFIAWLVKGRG (N-terminus assumed) [PES13]", "h", "=", 68.7),
]

---

biological target: HSA (Homo sapiens, UniProt P02768); assay: Albumin binding affinity by surface plasmon resonance; settings: SPR, BIAcoT200 system, HSA
Sequence (P02768 25-609): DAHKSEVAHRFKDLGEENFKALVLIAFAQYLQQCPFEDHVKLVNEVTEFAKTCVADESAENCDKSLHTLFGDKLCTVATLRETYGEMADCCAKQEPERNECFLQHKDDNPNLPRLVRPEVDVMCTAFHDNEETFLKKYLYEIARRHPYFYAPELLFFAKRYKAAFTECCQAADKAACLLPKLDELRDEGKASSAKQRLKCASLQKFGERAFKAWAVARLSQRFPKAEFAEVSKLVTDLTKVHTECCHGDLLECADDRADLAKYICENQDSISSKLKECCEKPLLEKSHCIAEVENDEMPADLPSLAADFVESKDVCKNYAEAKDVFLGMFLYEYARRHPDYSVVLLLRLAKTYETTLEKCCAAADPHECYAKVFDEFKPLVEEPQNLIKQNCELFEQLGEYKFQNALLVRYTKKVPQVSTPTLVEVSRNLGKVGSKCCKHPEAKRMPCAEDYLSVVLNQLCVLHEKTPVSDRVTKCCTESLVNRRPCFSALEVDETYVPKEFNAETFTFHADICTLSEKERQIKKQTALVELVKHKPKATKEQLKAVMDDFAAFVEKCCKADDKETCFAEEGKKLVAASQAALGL
Square brackets hold non-standard residues; d marks the D form. Ends that are not written are not given here. * marks the point of attachment. FITC = O=C1OC2(c3ccc(O)cc3Oc3cc(O)ccc32)c2ccc(NC(=S)*)cc21; Stearoyl = CCCCCCCCCCCCCCCCCC(=O)*; Myristoyl = CCCCCCCCCCCCCC(=O)*; Aib = CC(C)(N)C(=O)O; Ahx = NCCCCCC(=O)O
// reported k d for each item listed

# substance, unitsLabel, k d
data = [
    ("{FITC-Ahx}-EYK(Stearoyl)EEYEGGGGSGGGGSFNPRH[Aib]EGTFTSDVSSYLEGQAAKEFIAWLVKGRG (N-terminus assumed) [PES09]", "s⁻¹", 0.0531),
    ("{FITC-Ahx}-EYEEYEK(Myristoyl)GGGGSGGGGSFNPRH[Aib]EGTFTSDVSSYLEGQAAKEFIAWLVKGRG (N-terminus assumed) [PES19]", "s⁻¹", 0.0222),
    ("{FITC-Ahx}-EYEK(Stearoyl)EYEGGGGSGGGGSFNPRH[Aib]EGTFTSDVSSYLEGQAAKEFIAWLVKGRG (N-terminus assumed) [PES12]", "s⁻¹", 0.0531),
]
